system: Plasmodium falciparum; experiment: Binding affinity to Plasmodium falciparum GRP94 nucleotide binding domain by SPR analysis
Active and inactive are the calls of the source. The rule behind the calls is not given here.
REPORTED_ENDPOINT: Activity

| MOLECULE | RECORDED_RESULT |
| --- | --- |
| OC(CCN1CCN(c2ccccc2C(F)(F)F)CC1)c1ccc(F)c2ccccc12 (stereo in doubt; 55) | inactive |
| N#Cc1ccc(N2CCC(NCCC(O)c3ccc(F)c4ccccc34)CC2)c(Br)c1 (stereo not drawn) | inactive |
| COc1ccccc1N1CCN(CCC(O)c2ccc(F)c3ccccc23)CC1 (stereo not drawn) | inactive |

====

assay: Genotoxicity in Salmonella typhimurium TA1535 harboring pSK1002 assessed as survival at 0.008 mg/ml in presence of Sprague-Dawley rat liver S9 fraction after by SOS/umu assay relative to control; format: toxicity, organism-based; settings: salmonella enterica subsp. enterica serovar typhimurium, read-out: Survival
REPORTED_ENDPOINT: viability at 0.008 mg/ml (%)
Lab book: enter the figure in %, no units written.

A selection of reference data follows.
| COMPOUND | viability at 0.008 mg/ml (%) |
| --- | --- |
| OC(CCN1CCN(c2ccccc2C(F)(F)F)CC1)c1ccc(F)c2ccccc12 (stereo in doubt; 55) | 121 |
| OC(CCN1CCN(c2ccccc2C(F)(F)F)CC1)c1ccc(F)cc1 (stereo unspecified) | 96.1 |

Read the next record carefully.
viability at 0.008 mg/ml recorded for this compound, OC(CCN1CCN(c2ccc(F)cc2)CC1)c1ccc(F)c2ccccc12 (stereo unspecified) , is 98.7

====

Known viability at 0.063 mg/ml of a selection of molecules
assay: Genotoxicity in Salmonella typhimurium TA1535 harboring pSK1002 assessed as survival at 0.063 mg/ml in presence of Sprague-Dawley rat liver S9 fraction after by SOS/umu assay relative to control; type: toxicity, organism-based; settings: salmonella enterica subsp. enterica serovar typhimurium, read-out: Survival
Kindly answer with a numeric value in %, unit omitted.

| MOLECULE | viability at 0.063 mg/ml [%] |
| --- | --- |
| OC(CCN1CCN(c2ccccc2C(F)(F)F)CC1)c1ccc(F)cc1 (stereo not given) | 89 |
| Nc1ccc(N2CCC(NCCC(O)c3ccc(F)c4ccccc34)CC2)c(C(F)(F)F)c1 (stereo not given) | 55.7 |
| O=[N+]([O-])c1ccc(N2CCN(CCC(O)c3ccc(F)c4ccccc34)CC2)cc1 (stereo not given) | 118 |
| COc1ccccc1C1=CCN(CCC(O)c2ccc(F)cc2)CC1 (stereo not given) | 91 |
| COc1ccccc1N1CCN(CCC(O)c2ccc(F)cc2)CC1 (stereo in doubt; 66) | 100 |

Query COc1ccccc1N1CCN(CCC(O)c2ccc(F)c3ccccc23)CC1 (stereo not given) yields viability at 0.063 mg/ml of 88.4

Noted for OC(CCN1CCN(c2ccc(F)cc2)CC1)c1ccc(F)c2ccccc12 (stereo not given) : its viability at 0.063 mg/ml reads 112

For reference, reported viability at 0.063 mg/ml for O=[N+]([O-])c1ccccc1N1CCN(CCC(O)c2ccc(F)c3ccccc23)CC1 (stereo not given) stands at 63.8

Entry OC(CCN1CCN(C(c2ccccc2)c2ccccc2)CC1)c1ccc(F)c2ccccc12 (stereo not given) , viability at 0.063 mg/ml reported as 91.9

Summary for this molecule, Oc1ccc(C(O)CCN2CC=C(c3ccc(F)cc3)CC2)cc1 (stereo not given) : viability at 0.063 mg/ml is 118

====

assay: Genotoxicity in Salmonella typhimurium TA1535 harboring pSK1002 assessed as survival at 0.063 mg/ml in absence of Sprague-Dawley rat liver S9 fraction after by SOS/umu assay relative to control; assay type: toxicity, organism-based; details: salmonella enterica subsp. enterica serovar typhimurium, read-out: Survival
Quick reference for viability at 0.063 mg/ml among some compounds
The figure you give is taken to be in %; do not add the unit.

Example results:
| COMPOUND | UNIT_STRING | viability at 0.063 mg/ml |
| --- | --- | --- |
| N#Cc1ccc(N2CCC(NCCC(O)c3ccc(F)c4ccccc34)CC2)c(Br)c1 (stereo not given) | % | 42.6 |
| COc1ccccc1C1=CCN(CCC(O)c2ccc(F)cc2)CC1 (stereo not given) | % | 101 |
| N#Cc1ccc(N2CCC(NCCC(O)c3ccc(F)c4ccccc34)CC2)c(Cl)c1 (stereo not given) | % | 55.4 |
| OC(CCN1CCN(c2ccc(F)cc2)CC1)c1ccc(F)c2ccccc12 (stereo not given) | % | 118 |
| OC(CCN1CCN(C(c2ccccc2)c2ccccc2)CC1)c1ccc(F)c(F)c1 (stereo not given) | % | 28 |
| O=[N+]([O-])c1ccc(N2CCN(CCC(O)c3ccc(F)c4ccccc34)CC2)cc1 (stereo not given) | % | 124 |

Per the records, this compound ( OC(CCN1CCN(c2ccccc2C(F)(F)F)CC1)c1ccc(F)cc1 (stereo not given) ) has viability at 0.063 mg/ml equal to 28.6

Given item COc1ccccc1N1CCN(CCC(O)c2ccc(F)cc2)CC1 (stereo in doubt; 66) , the value recorded as its viability at 0.063 mg/ml is 108

Input OC(CCN1CCN(C(c2ccccc2)c2ccccc2)CC1)c1ccc(F)c2ccccc12 (stereo not given) . Output viability at 0.063 mg/ml: 141

Given item Oc1ccc(C(O)CCN2CC=C(c3ccc(F)cc3)CC2)cc1 (stereo not given) , the value recorded as its viability at 0.063 mg/ml is 123

====

test: Genotoxicity in Salmonella typhimurium TA1535 harboring pSK1002 assessed as umu gene induction at 0.063 mg/ml in presence of Sprague-Dawley rat liver S9 fraction after by SOS/umu assay relative to control; assay type: toxicity, organism-based; details: salmonella enterica subsp. enterica serovar typhimurium, read-out: FC
REPORTED_ENDPOINT: fold induction at 0.063 mg/ml

In the examples that follow, each entry is paired with its recorded fold induction at 0.063 mg/ml.
| COMPOUND | fold induction at 0.063 mg/ml |
| --- | --- |
| O=[N+]([O-])c1ccc(N2CCN(CCC(O)c3ccc(F)c4ccccc34)CC2)cc1 (stereo not given) | 0.5 |
| OC(CCN1CCN(c2ccc(F)cc2)CC1)c1ccc(F)c2ccccc12 (stereo not given) | 0.5 |
| COc1ccccc1N1CCN(CCC(O)c2ccc(F)cc2)CC1 (stereo in doubt; 66) | 0.9 |
| COc1ccccc1C1=CCN(CCC(O)c2ccc(F)cc2)CC1 (stereo not given) | 0.9 |

We next turn to a different compound, shown below.
// sample OC(CCN1CC=C(c2ccc(F)cc2)CC1)c1ccc2c(c1)OCO2 (stereo not given) , its fold induction at 0.063 mg/ml was 0.9

====

assay: Genotoxicity in Salmonella typhimurium TA1535 harboring pSK1002 assessed as umu gene induction at 0.004 mg/ml in absence of Sprague-Dawley rat liver S9 fraction after by SOS/umu assay relative to control; type: toxicity, organism-based; conditions: salmonella enterica subsp. enterica serovar typhimurium, read-out: FC
// values below are reported fold induction at 0.004 mg/ml
Please state the value as a number alone, without comment.

| COMPOUND | fold induction at 0.004 mg/ml |
| --- | --- |
| N#Cc1ccc(N2CCC(NCCC(O)c3ccc(F)c4ccccc34)CC2)c(Cl)c1 (configuration not stated) | 1 |
| N#Cc1ccc(N2CCC(NCCC(O)c3ccc(F)c4ccccc34)CC2)c(C(F)(F)F)c1 (stereo in doubt; 72) | 0.9 |
| N#Cc1ccc(C(O)CCN2CC=C(c3ccc(F)cc3)CC2)cc1 (configuration not stated) | 0.9 |
| OC(CCN1CCN(c2ccccc2C(F)(F)F)CC1)c1ccc(F)cc1 (configuration not stated) | 0.9 |
| COc1ccccc1N1CCN(CCC(O)c2ccc(F)c3ccccc23)CC1 (configuration not stated) | 1.1 |
| OC(CCN1CCN(C(c2ccccc2)c2ccccc2)CC1)c1ccc(Cl)cc1 (configuration not stated) | 1 |
| OC(CCN1CCN(c2ccccc2C(F)(F)F)CC1)c1ccc(F)c2ccccc12 (stereo in doubt; 55) | 1.1 |
| Nc1ccc(N2CCC(NCCC(O)c3ccc(F)c4ccccc34)CC2)c(C(F)(F)F)c1 (configuration not stated) | 0.8 |

Looking up OC(CCN1CCN(C(c2ccccc2)c2ccccc2)CC1)c1ccc(F)cc1 (configuration not stated) , I found its fold induction at 0.004 mg/ml recorded as 1

Measured fold induction at 0.004 mg/ml, COc1ccccc1N1CCN(CCC(O)c2ccc(F)cc2)CC1 (stereo in doubt; 66) : 1.1

Lab book: fold induction at 0.004 mg/ml of OC(CCN1CCN(C(c2ccccc2)c2ccccc2)CC1)c1ccc(Br)cc1 (configuration not stated) noted as 1

Noted for COc1ccccc1C1=CCN(CCC(O)c2ccc(F)c3ccccc23)CC1 (configuration not stated) : its fold induction at 0.004 mg/ml reads 0.9
